# Measurement Context: 308.15 K; 20000 kPa; Liquid; Vibrating tube method
Recorded Endpoint: mass density (kg/m3)

CCCCCCCO [heptan-1-ol] : 824.6
CCCCCCCCCCCO [1-undecanol] : 832.9
CCCCCCCCCO [nonan-1-ol] : 828.9
CCCCCCCCCCO [decan-1-ol] : 830.9
CCCO [propan-1-ol] : 807.5
CCO [ethanol] : 793.9
CCCCO [butan-1-ol] : 813
CCCCCCCCO [octan-1-ol] : 827.2
CCCCCO [pentan-1-ol] : 817.5
CCCCCCO [hexan-1-ol] : 821.4

* * *

Listed here: items and their measured mass density.
# Measurement Context: 298.15 K; 5000 kPa; Liquid; Vibrating tube method
Recorded Endpoint: mass density (kg/m3)

CCCCCCCCCCCO [1-undecanol] : 830.7
CCCCCCCCO [octan-1-ol] : 824.6
CCCCCCCO [heptan-1-ol] : 821.8
CCO [ethanol] : 789.3
CCCCCO [pentan-1-ol] : 814.2
CCCCCCCCCCO [decan-1-ol] : 828.5
CCCCO [butan-1-ol] : 809.6
CCCO [propan-1-ol] : 803.8
CCCCCCO [hexan-1-ol] : 818.4
CCCCCCCCCO [nonan-1-ol] : 826.3

* * *

mass density by entry:
# Measurement Context: 278.15 K; 1000 kPa; Liquid; Vibrating tube method
Recorded Endpoint: mass density (kg/m3)

CCCCCCO : 829.5
CCO : 802.7
CCCCCCCO : 833
CCCCCCCCCO : 837.4
CCCCO : 821.6
CCCCCCCCO : 835.7
CCCO : 816.4
CCCCCO : 825.8

* * *

Property: mass density; scope: individual molecules
# Measurement Context: 288.15 K; 50000 kPa; Liquid; Vibrating tube method
Recorded Endpoint: mass density (kg/m3)

CCCCCCCCCO [nonan-1-ol] : 856.3
CCCCO [butan-1-ol] : 844.4
CCCCCCCCO [octan-1-ol] : 855.3
CCCO [propan-1-ol] : 840.4
CCCCCO [pentan-1-ol] : 847.6
CCCCCCCO [heptan-1-ol] : 853.1
CCCCCCCCCCO [decan-1-ol] : 858.2
CCO [ethanol] : 829.3
CCCCCCO [hexan-1-ol] : 850.5

* * *

Known mass density of a selection of compounds
# Measurement Context: 358.15 K; 30000 kPa; Liquid; Vibrating tube method
Recorded Endpoint: mass density (kg/m3)

CCCCCCCCCCCO [1-undecanol] : 807.7
CCCCCCCCCCO [decan-1-ol] : 805.6
CCCCCCCCO [octan-1-ol] : 801.1
CCCCCCO [hexan-1-ol] : 794.3
CCCCCCCCCO [nonan-1-ol] : 803.3
CCCCCCCO [heptan-1-ol] : 798.2
CCCO [propan-1-ol] : 777.5
CCCCCO [pentan-1-ol] : 789.9
CCO [ethanol] : 762.8
CCCCO [butan-1-ol] : 784.4

* * *

# Measurement Context: 338.15 K; 45000 kPa; Liquid; Vibrating tube method
// mass density lookup, one value per entry
Recorded Endpoint: mass density (kg/m3)

CCCCCCCCCCCO : 828.4
CCO : 790.5
CCCCCO : 813.6
CCCCCCCCO : 823.1
CCCCO : 809.2
CCCO : 803.7
CCCCCCCO : 820.6
CCCCCCCCCO : 824.8
CCCCCCCCCCO : 826.7
CCCCCCO : 817.3

* * *

# Measurement Context: 358.15 K; 20000 kPa; Liquid; Vibrating tube method
Each entry below lists one item and its recorded mass density value.
Recorded Endpoint: mass density (kg/m3)

CCCCO : 776.2
CCCO : 768.7
CCCCCCO : 786.9
CCCCCCCO : 790.9
CCCCCCCCCCCO : 801.1
CCCCCCCCCCO : 798.9
CCO : 753
CCCCCCCCCO : 796.5
CCCCCCCCO : 794.1
CCCCCO : 782.1

* * *

The molecules listed here are annotated with their mass density.
# Measurement Context: 328.15 K; 100 kPa; Liquid; Vibrating tube method
Recorded Endpoint: mass density (kg/m3)

CCCCCCCCO : 800.4
CCCCCO : 788.2
CCCCCCCCCCCO : 807.4
CCCCCCCO : 797.1
CCCO : 775
CCO : 758.4
CCCCCCO : 793
CCCCO : 782.3
CCCCCCCCCCO : 805
CCCCCCCCCO : 802.8

* * *

# Measurement Context: 318.15 K; 60000 kPa; Liquid; Vibrating tube method
The following compounds are listed with their measured mass density values.
Recorded Endpoint: mass density (kg/m3)

CCCCO : 830.9
CCO : 814.6
CCCCCO : 834.6
CCCCCCCCCO : 844
CCCCCCCO : 840.4
CCCO : 825.8
CCCCCCO : 837.7
CCCCCCCCCCO : 845.7
CCCCCCCCO : 842.6
CCCCCCCCCCCO : 847.3

* * *

# Measurement Context: 358.15 K; 1000 kPa; Liquid; Vibrating tube method
Measured mass density of individual entries
Recorded Endpoint: mass density (kg/m3)

CCCCO : 757.7
CCCCCCCCO : 778.8
CCCO : 748.8
CCCCCCO : 770
CCCCCO : 764.8
CCCCCCCCCCO : 784.3
CCCCCCCCCCCO : 786.8
CCCCCCCO : 775.1
CCO : 730.7
CCCCCCCCCO : 781.6

* * *

Reported mass density values for the following compounds.
# Measurement Context: 318.15 K; 30000 kPa; Liquid; Vibrating tube method
Recorded Endpoint: mass density (kg/m3)

CCCCCCCCCO [nonan-1-ol] : 828.5
CCCCCCCCCCCO [1-undecanol] : 832.3
CCCCCCO [hexan-1-ol] : 821
CCCO [propan-1-ol] : 807.5
CCCCCCCCCCO [decan-1-ol] : 830.4
CCO [ethanol] : 794
CCCCCCCCO [octan-1-ol] : 826.8
CCCCCO [pentan-1-ol] : 817.3
CCCCO [butan-1-ol] : 812.9
CCCCCCCO [heptan-1-ol] : 824.2

* * *

# Measurement Context: 288.15 K; 60000 kPa; Liquid; Vibrating tube method
Measured mass density by item
Recorded Endpoint: mass density (kg/m3)

CCCCCCCCO [octan-1-ol] : 859.8
CCCCCCCO [heptan-1-ol] : 857.8
CCCCCCO [hexan-1-ol] : 855.4
CCCCO [butan-1-ol] : 849.4
CCCCCCCCCCO [decan-1-ol] : 862.7
CCCCCO [pentan-1-ol] : 852.5
CCCCCCCCCO [nonan-1-ol] : 860.7
CCCO [propan-1-ol] : 845.6
CCO [ethanol] : 835

* * *

# Measurement Context: 308.15 K; 15000 kPa; Liquid; Vibrating tube method
Recorded Endpoint: mass density (kg/m3)

CCCCCCCCCCCO : 830
CCCCCCCO : 821.5
CCCCO : 809.5
CCO : 789.7
CCCCCCCCCCO : 828
CCCCCCCCCO : 826
CCCCCO : 814
CCCCCCCCO : 824.2
CCCO : 803.8
CCCCCCO : 818.2

* * *

# Measurement Context: 308.15 K; 35000 kPa; Liquid; Vibrating tube method
Recorded Endpoint: mass density (kg/m3)

CCCCCCO : 830.3
CCCCCCCCCCCO : 840.9
CCCCCCCO : 833.3
CCCCCCCCCO : 837.2
CCCCCCCCCCO : 839.1
CCCCCCCCO : 835.7
CCCCCO : 826.8
CCCCO : 822.8
CCO : 805.2
CCCO : 817.8

* * *

# Measurement Context: 328.15 K; 1000 kPa; Liquid; Vibrating tube method
Recorded Endpoint: mass density (kg/m3)

CCCCCCCCCCO : 805.7
CCCCCCCO : 797.8
CCO : 759.4
CCCCCCO : 793.7
CCCCCCCCCCCO : 808
CCCO : 775.9
CCCCCO : 789
CCCCO : 783.1
CCCCCCCCCO : 803.4
CCCCCCCCO : 801.1

* * *

# Measurement Context: 338.15 K; 55000 kPa; Liquid; Vibrating tube method
Recorded Endpoint: mass density (kg/m3)

CCCCCCCCCCO : 832.1
CCCCCCCCCCCO : 833.6
CCCO : 810.3
CCCCCCCO : 826.2
CCO : 797.7
CCCCO : 815.4
CCCCCO : 819.6
CCCCCCCCCO : 830.2
CCCCCCO : 823.1
CCCCCCCCO : 828.7

This collection of values is drawn from the NIST ThermoML archive (doi:10.1016/j.jct.2011.10.023).
